- Target or test system: hFZD7 CRD-Fc (human, UniProt O75084 33-185)
- Method description: spot phage ELISA
Assay metric: signal:noise ratio
Give the figure only, with no unit attached.

- FELLLDLGDLIRLW [SEQ ID NO 8]: 26.9

Given ACSYVIDLWNLCLR [SEQ ID NO 9] , state its recorded signal:noise ratio. 27.6

Given FCENPYIICW [SEQ ID NO 26] , state its recorded signal:noise ratio. 8.6

Given ILTFEYFWILGLIL [SEQ ID NO 18] , state its recorded signal:noise ratio. 4.5

Given ISLIEAMIALDRVF (also called Fz7-06) [SEQ ID NO 11] , state its recorded signal:noise ratio. 27

Given LPLFFLSYVL [SEQ ID NO 19] , state its recorded signal:noise ratio. 6.3

Given ASELHDWCRMMFPW [SEQ ID NO 10] , state its recorded signal:noise ratio. 28.9

Given IWFKGRFVEFSSLV (also called Fz7-17) [SEQ ID NO 23] , state its recorded signal:noise ratio. 7.7
